assay text: in vitro
assay context: human, hela cells, % viability
Recorded measurements of viability at 28.5 h, 10 µM, one per entry
// units = %; emit number, no label

INSERT INTO results (compound, unit_abbrev, test_value) VALUES
  ('CC(C)(C)c1cc(C(=O)N2CCN(c3ncccn3)CC2)n(Cc2ccc(Cl)cc2Cl)n1 [CBK107294]', '%', 105);

Which viability at 28.5 h, 10 µM reading was recorded for the compound CCN(CC1CCN(c2ccccn2)CC1)C(=O)C1(C#N)CCCC1 [CBK304096] ?
98.7

Which viability at 28.5 h, 10 µM reading was recorded for the compound CCC(COC)NS(=O)(=O)c1ccc(C(C)C)cc1 (stereo not shown) [CBK044587] ?
108

Which viability at 28.5 h, 10 µM reading was recorded for the compound Cc1c(-c2ccc(Cl)cc2Cl)nc2ccccc2c1C(=O)NCCC(c1ccccc1)c1ccccc1 [CBK262634] ?
99.7

Which viability at 28.5 h, 10 µM reading was recorded for the compound Cc1cc2cc(F)ccc2n1CCCN1CCN(c2ccncc2)CC1 [CBK039119G] ?
116

Which viability at 28.5 h, 10 µM reading was recorded for the compound COc1ccc(F)c(CN(CC2CCNCC2)C(=O)Nc2ccccc2C(F)(F)F)c1 [CBK049805] ?
96.9

###

assay text: in vitro
assay context: human, hela cells, % viability
measure name: viability at 28.5 h, 10 µM (%)
// units = %; emit number, no label

See these solved cases before continuing.
INSERT INTO assay_data (compound, test_value) VALUES
  ('CCN1CC2(CCN(Cc3cccc(-c4ccccn4)c3)CC2)CC1=O [CBK307399]', 107),
  ('Cc1nc2c(Oc3ncccn3)cccn2c1N(C)C(=O)C1CCCCC1 [CBK147161]', 99.1),
  ('OC(COc1cccc2ccccc12)CN1CCN(C(c2ccccc2)c2ccccc2)CC1 (centres unmarked) [CBK007591]', 93.1);

Which viability at 28.5 h, 10 µM reading was recorded for the compound CN(C)Cc1c(O)ccc2occ(C(=O)c3cccs3)c12 [CBK261959C] ?
103

Which viability at 28.5 h, 10 µM reading was recorded for the compound c1ccc2c(c1)CCN(Cc1nc3ccccc3[nH]1)C2 [CBK126396] ?
92.2

###

assay text: in vitro
assay context: human, hela cells, % viability
Recorded measurements of viability at 28.5 h, 10 µM, one per entry

See these solved cases before continuing.
INSERT INTO assay_data (molecule, test_value) VALUES
  ('Cc1ccc2ncnc(NC(CC(C)C)C(=O)O)c2c1 (stereo not drawn) [CBK275388]', '109%'),
  ('CC(C)(C)c1cc(C[C@H]2CNCC[C@H]2CC(=O)N2CCN(c3ccc(F)cc3)CC2)no1 [CBK288800]', '94.8%'),
  ('COc1ccccc1NC(=O)C(C)N1C(=O)c2ccccc2C1=O (stereo not drawn) [CBK261043]', '92%'),
  ('Cc1nc2cc(C(=O)O)ccc2n1CCO [CBK260949]', '106%'),
  ('COCCN1C(=O)C2(CC(=O)N(CCNS(C)(=O)=O)C2=O)c2cc(C)ccc21 (stereo not drawn) [CBK075479]', '98.2%'),
  ('Cc1ccc(C(=O)NC2CCCC2)cc1[N+](=O)[O-] [CBK001993]', '102%');

Which viability at 28.5 h, 10 µM reading was recorded for the molecule COc1ccc(Nc2cc(-c3cc(OC)c(OC)c(OC)c3)ncn2)c(OC)c1 [CBK090759] ?
95.4%

Which viability at 28.5 h, 10 µM reading was recorded for the molecule Cc1nn(CC(=O)N2CCCCCC2)c(=O)c2cc3ccsc3n12 [CBK284060] ?
84.8%

Which viability at 28.5 h, 10 µM reading was recorded for the molecule Cc1ccc(S(=O)(=O)N(C)C)cc1NC(=O)C12CCC(C)(C(=O)C1)C2(C)C (stereo not drawn) [CBK266551] ?
108%
